Target: human Fc (human)
Assay: ELISA; negative control
Task for the reader: assign each of the following binders its reported optical density.
Numbers only, in OD.

Worked cases, answers included:
- Binder: "376_D11 (antibody, V domains shown) VH: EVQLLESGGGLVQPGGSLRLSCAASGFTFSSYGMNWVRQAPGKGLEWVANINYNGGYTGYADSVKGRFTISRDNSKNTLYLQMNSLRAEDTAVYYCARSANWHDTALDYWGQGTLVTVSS VL: DIQMTQSPSSLSASVGDRVTITCRASQSILSYLNWYQQKPGKAPKLVIYAATSRASGVPSRFSGSGSGTDFTLTISSLQPEDFATYYCQQSYNNPLTFGGGTKVEIK"
  Assay Value: 0.267
- Binder: "373_G05 (antibody, V domains shown) VH: EVQLLESGGGLVQPGGSLRLSCAASGFTFSSYSMNWVRQAPGKGLEWVAGINYNGGYTSYADSVKGRFTISRDNSKNTLYLQMNSLRAEDTAVYYCARSATWHDTHLDYWGQGTLVTVSS VL: DIQMTQSPSSLSASVGDRVTITCRASQSILSYLNWYQQKPGKAPKLLIYAATSLASGVPSRFSGSGSGTDFTLTISSLQPEDFATYYCQQSYELPLTFGGGTKVEIK"
  Assay Value: 0.273
- Binder: "369_B12 (antibody, V domains shown) VH: EVQLLESGGGLVQPGGSLRLSCAASGFTFDSYSMNWVRQAPGKGLEWVSGINYNGGYKSYADSVKGRFTISRDNSKNTLYLQMNSLRAEDTAVYYCARSATWHDTHLDYWGQGTLVTVSS VL: DIQMTQSPSSLSASVGDRVTITCRASQSILTYVNWYQQKPGKAPKLLIYATTSLASGVPSRFSGSGSGTDFTLTISSLQPEDFATYYCQQSYDSPLTFGGGTKVEIK"
  Assay Value: 0.4

// optical density lookup, key: 365_B03 (antibody, V domains shown) VH: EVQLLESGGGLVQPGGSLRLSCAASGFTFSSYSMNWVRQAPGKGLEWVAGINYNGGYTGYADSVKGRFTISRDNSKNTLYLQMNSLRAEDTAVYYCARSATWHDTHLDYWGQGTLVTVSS VL: DIQMTQSPSSLSASVGDRVTITCRASQSIVSYLNWYQQKPGKAPKLLIYAATSRASGVPSRFSGSGSGTDFTLTISSLQPEDFATYYCQQSYENPLTFGGGTKVEIK
0.444

Where do the numbers come from? From patent US20210380703A1.
